# experimentalTarget: Concanavalin-A (Canavalia ensiformis) (UniProt P02866)
# Sequence (P02866 whole entry, looked up): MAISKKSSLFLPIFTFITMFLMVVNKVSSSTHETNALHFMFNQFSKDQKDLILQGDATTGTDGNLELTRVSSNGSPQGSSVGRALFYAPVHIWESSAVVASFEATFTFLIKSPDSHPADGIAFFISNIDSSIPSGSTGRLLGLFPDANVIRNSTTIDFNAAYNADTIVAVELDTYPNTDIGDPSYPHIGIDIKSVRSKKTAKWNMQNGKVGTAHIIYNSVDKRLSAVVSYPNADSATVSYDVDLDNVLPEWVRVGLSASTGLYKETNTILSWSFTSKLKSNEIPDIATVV
# protocolSummary: ConA small-molecule binders, primary screen, artefact control for SMM control protein annotation, biochemical, small-molecule microarray, Alexa647 label, 635 nm (AID 1127);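 note: z combines 667 nm emission intensity with signal-to-noise across three replicate slides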
# conditionSet: ConA-A647 binding fluorescence, higher = more signal
The label depends only on composite z-score: class 1 if it is at least 0.4, class 0 if it is smaller.

### Prompt Determine whether measured composite z-score meets or exceeds 0.4 for C=C(COC)/C(=C/C[C@@H](OC(C)=O)c1ccc(OCCO)cc1)c1cnc2ccccc2c1
### Response class 1

### Prompt Is reported composite z-score greater than or equal to 0.4 here: CN1C(=O)C2C=CC(C(O)C3CC=CCC3)N(N(c3ccccc3)c3ccccc3)C2C1=O (stereo unspecified)
### Response class 0

### Prompt Is the recorded value of composite z-score equal to or greater than 0.4 for this compound? C[N+](C)(C)CCCC[C@@H]1NC(=O)[C@H]2C[C@@H](C(=O)NCCCCCCNC(=O)CS)[C@@H](c3cccc(OCCO)c3)N2C1=O
### Response class 0

----------
For each entry below, report its composite Z-score value.
# protocolSummary: small-molecule microarray binders of probe aXIP, primary screen, biochemical, NeuroSMM set, 635/667 nm fluorescence (AID 1119);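 note: probe is the protein aXip251-270 applied at 1 µg/mL to compound-printed slides; binding of probe to printed compounds measured as 667 nm fluorescence plus signal to noise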
# conditionSet: higher = more signal, called active from +8 up or from −8 down
Active and inactive are the calls of the source.

Consider CC(C)C[C@@H]1NC(=O)[C@@H]2C[C@H](C(=O)NCc3ccc(F)cc3)[C@H](c3cccc(OCCO)c3)N2C1=O . Its measured composite Z-score is 0.532 (inactive)

Entry Cc1ccc(S[C@]2(C(=O)NCCCN(C)C)CC(=O)N(Cc3cc(C(F)(F)F)cc(C(F)(F)F)c3)[C@@H]2c2ccc(CO)cc2)cc1 , composite Z-score reported as 0.624 (inactive)

Value of composite Z-score reported for the molecule CC(C)[Si]1(C(C)C)O[C@@H](c2ccccc2)c2cc(-c3ccc(-c4ccc(Cl)c(Cl)c4)o3)nc(-c3ccccc3)c21 is -0.0194 (inactive)

So, COCCOC(=O)N1C(=O)[C@@]2(c3cc(C#CCCO)ccc31)[C@H](C(N)=O)[C@H]1C(=O)O[C@H](c3ccccc3)[C@H](c3ccccc3)N1[C@@H]2c1ccc(O)cc1 ? Its composite Z-score was -0.516 (inactive)

The measured composite Z-score associated with CC(C)=CCN[C@H](CO)c1ccccc1 reads -0.139 (inactive)

Record summary for CCN(CC)c1ccc(N2CC=CC34O[C@@H]5C=CCCOC(=O)C5[C@H]3C(=O)N(CCCCCCO)[C@@H]4C2=O)cc1 (stereo partly drawn) : reported composite Z-score = 0.469 (inactive)

Per the records, this molecule ( O=C1N(Cc2ccccc2)c2ccccc2[C@@H]2OC(c3ccc(OCCCO)cc3)=N[C@]12CCS(=O)(=O)c1ccccc1 ) has composite Z-score equal to 1.29 (inactive)

// recorded composite Z-score for C=C(CCCC)/C(=C/C[C@@H](OC(=O)c1ccncc1)c1ccc(OCCO)cc1)c1cc(C(=O)OC)ccc1OC : -0.367 (inactive)

C=CCN1C(=O)[C@@]2(Cc3ccccc31)N=C(c1ccc(OCCCO)cc1)O[C@H]2c1ccccc1 yielded composite Z-score of 0.302 (inactive)

Note to self: composite Z-score recorded for O=C1O[C@@H](c2ccccc2)[C@@H](c2ccccc2)N2[C@@H](c3ccccc3OCCO)[C@]3(C(=O)Nc4ccc(C#CC5=CCCCC5)cc43)[C@@H](C(=O)N3CCCCCCC3)[C@H]12 was 7.47 (inactive)

Kindly note the recorded composite Z-score for C=CCN1C(=O)[C@@]2(CC=C)N=C(c3ccc(OCCCO)cc3)O[C@H]2c2ccccc21 , which is 0.33 (inactive)

The molecule C=CCC(OC(C)=O)[C@@H]1[C@@H](N(Cc2ccc(-c3ccccc3)cc2)C(=O)c2ccc(-c3ccccc3)cc2)c2cc(OCCCO)ccc2N1C(=O)Cc1ccc2ccccc2c1 (stereo partly drawn) showed composite Z-score equal to -0.316 (inactive)

The molecule C=C(C)[C@@H]1CC=C(C(O)C2C=CC3C(=O)N(c4ccccc4)C(=O)C3N2Nc2ccccc2)CC1 (stereo partly drawn) showed composite Z-score equal to 0.788 (inactive)

Value of measured composite Z-score for the entry CC(C)C(=C=CC[C@H](O)c1ccc(OCCO)cc1)CCO : -0.435 (inactive)

// CC(C)C(O)C1C=CC2C(=O)N(c3ccccc3)C(=O)C2N1Nc1ccc([N+](=O)[O-])cc1 (stereo not drawn) : composite Z-score value = 2.65 (inactive)

Short answer for COCCOC(=O)N1C(=O)[C@@]2(c3cc(C#CC4(O)CCCCCC4)ccc31)[C@H](c1ccccc1OCCO)N1[C@H](c3ccccc3)[C@H](c3ccccc3)OC(=O)[C@H]1[C@@H]2C(=O)N1CCN(c2ncccn2)CC1 : composite Z-score was -0.291 (inactive)

get_value(item= CC1CC/C=C\[C@H]2OC34C=CCN(Cc5ccccc5)C(=O)[C@H]3N(CCCO)C(=O)[C@@H]4C2C(=O)O1 (stereo partly drawn) , readout=composite Z-score) returns -0.422 (inactive)

For record CCOC(=O)C[C@H]1[C@H](OC(=O)c2ccc(C(=O)c3ccccc3)cc2)[C@@H](NC(=O)CC(C)C)c2cc(OCCCO)ccc2N1C(=O)c1ccc2ccccc2n1 the listed composite Z-score is -0.86 (inactive)

Input O=C1c2ccccc2[C@](Cc2ccccc2I)(C(=O)NCC(F)(F)F)[C@H](c2ccc(CO)cc2)N1Cc1ccccc1Cl . Output composite Z-score: -0.228 (inactive)

The molecule identified as COc1cc2c(cc1OC)CN(C(=O)[C@H]1[C@@H]3C(=O)O[C@@H](c4ccccc4)[C@@H](c4ccccc4)N3[C@@H](c3ccc(O)cc3)[C@]13C(=O)Nc1ccc(C#CCCO)cc13)CC2 registered its composite Z-score at 0.274 (inactive)

Documented composite Z-score of COC(=O)[C@@]1(Cc2ccc(OC)cc2)[C@H]2c3cc(C(=O)N(C)C)n(CCc4ccccn4)c3C[C@H]2CN1C(=O)c1ccccc1 : -0.0712 (inactive)

// recorded composite Z-score for CCOC(=O)C1=CC[C@@H](c2ccccc2)N(S(=O)(=O)c2ccc(C)cc2)[C@H]1c1ccccc1C : -0.663 (inactive)

The value of composite Z-score measured for the molecule [N-]=[N+]=Nc1ccccc1[C@@H]1OC(c2ccc(OCCCO)cc2)=N[C@]1(Cc1ccccc1)C(=O)N1CCOCC1 turned out to be -0.174 (inactive)

Field composite Z-score (entry CCCCN1CC=CC23O[C@@H]4C=CCCOC(=O)C4[C@H]2C(=O)N(CCCCCCO)[C@@H]3C1=O (stereo partly drawn) ) reads 0.0289 (inactive)

Reported composite Z-score of COCCOC(=O)N1C(=O)[C@@]2(c3cc(C#CCC(C(=O)OC)C(=O)OC)ccc31)[C@H](c1ccccc1OCCO)N1[C@H](c3ccccc3)[C@H](c3ccccc3)OC(=O)[C@H]1[C@@H]2C(=O)N1CCN(c2ncccn2)CC1 : 0.347 (inactive)

Form: molecule = C=CCN1C(=O)[C@]2(O[C@H](CCn3cc([C@H](O)c4ccccc4)nn3)[C@@H]([Si](C)(C)c3ccc(OC)cc3)[C@@H]2C)c2cc(N3CCC3=O)ccc21 ; composite Z-score = 0.156 (inactive)

Record CC1(C)C2C=C(C(O)C3C=CC4C(=O)NC(=O)C4N3Nc3ccc(Cl)cc3Cl)C[C@@H]1C2 (stereo partly drawn) , field composite Z-score: 0.392 (inactive)

Entry C=CC1(C(=O)OC)CC=C(C(=O)OC)CC1 (stereo not drawn) , composite Z-score reported as 0.257 (inactive)

----------
# protocolSummary: E. coli acrAB mutant growth effects, primary screen, E. coli filamentation inducers, strain DRC39, OD650, 24 h (AID 1178);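 note: growth measured as culture turbidity by optical density at 650 nm; test concentration not given here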
# conditionSet: higher = more signal, called active from +8 up or from −8 down
Give z-score for every item shown.
// print number alone

Value of z-score reported for the compound C=C(C)[C@@H]1CC=C(C(O)C2C=CC3C(=O)N(c4ccccc4)C(=O)C3N2Nc2ccccc2)CC1 (some centres not stated) is 0.195

The reported value for C=CC[C@]1(C(=O)NCc2ccccc2)N=C(c2ccc(OCCCO)cc2)O[C@H]1c1ccccc1N=[N+]=[N-] in terms of z-score is 0.498

response.value for CN(C)CCCC[C@@H]1NC(=O)[C@@H]2C[C@H](C(=O)NCCCCCCN)[C@H](c3cccc(OCCO)c3)N2C1=O (field: z-score) = -0.459

Input CCOC(=O)C[C@H]1[C@H](OC(=O)c2ccc(C(=O)c3ccccc3)cc2)[C@@H](NC(=O)c2ccc3ccccc3n2)c2cc(OCCCO)ccc2N1C(=O)c1ccccc1 . Output z-score: -0.28

Given item CCOC(=O)[C@H]1C/C=C/C[C@H](C(=O)OCC)C(=O)O[C@H]2[C@@H](OC)O[C@H](CO)[C@@H](OC(=O)c3c(OC)cccc3OC)[C@@H]2OC1=O , the value recorded as its z-score is 0.0332

z-score reading for O=C(CS)NCCCCCCNC(=O)[C@@H]1C[C@@H]2C(=O)N[C@@H](Cc3ccccc3)C(=O)N2[C@@H]1c1cccc(OCCO)c1 : 0.051

The reported value for CN1C(=O)C2C=CC(C(O)c3ccc([N+](=O)[O-])cc3)N(N3CCCCC3)C2C1=O (configuration not stated) in terms of z-score is -0.884
